Provenance of the data: the METLIN SMRT retention time set (Domingo-Almenara et al. 2019)

# experiment: gradient 5% acetonitrile 3 min, to 50% in 2 min, to 85% in 15 min, held 3 min, 100 µL/min
# protocol-conditions: column: Zorbax Extend-C18 2.1 x 50 mm; eluents: water / acetonitrile, 0.1% formic acid
observation-type: RP-LC retention time (s)

> print(dat)
                                   compound      observation.type  result
1  CCOc1ccc(C2Cn3nnc(-c4nc(-c5ccc(OC)cc5)no4)c3CO2)cc1 (stereo not drawn)  RP-LC retention time    1160
2     CC(=O)c1cccc(NC(=O)c2sc3ccccc3c2Cl)c1  RP-LC retention time     988
3              COCc1c(C(=O)O)nnn1-c1ccccc1F  RP-LC retention time     670
4  CC12C(=O)N(Cc3ccccc3)C(=O)C1C1C=CC2C1 (stereo not drawn)  RP-LC retention time     844
5  Cc1ccc(Cn2c(=O)c(N3CCN(C(=O)C4CCCO4)CC3)nc3cccnc32)cc1 (stereo not drawn)  RP-LC retention time     998
6      O=C(c1nc(-c2cnccn2)no1)N1CCc2ccccc21  RP-LC retention time     740
7  Cc1sc(-c2nnc(C3CC3)o2)cc1NC(=O)c1ccc(N(C)C)cc1  RP-LC retention time     963
8  Cc1cc(C)cc(NC(=O)Cn2c(=O)c(CCC(=O)NC3CCCC3)nc3ccccc32)c1  RP-LC retention time     916
